Measured values drawn from patent US20210403579A1 for this set.

kon reference
- Tested System: T1, Human ST2 (human, UniProt Q01638 19-328, limits assumed)
- T1 construct: also called human ST2 protein; Interleukin 1 receptor-like 1
- T1 sequence (looked up): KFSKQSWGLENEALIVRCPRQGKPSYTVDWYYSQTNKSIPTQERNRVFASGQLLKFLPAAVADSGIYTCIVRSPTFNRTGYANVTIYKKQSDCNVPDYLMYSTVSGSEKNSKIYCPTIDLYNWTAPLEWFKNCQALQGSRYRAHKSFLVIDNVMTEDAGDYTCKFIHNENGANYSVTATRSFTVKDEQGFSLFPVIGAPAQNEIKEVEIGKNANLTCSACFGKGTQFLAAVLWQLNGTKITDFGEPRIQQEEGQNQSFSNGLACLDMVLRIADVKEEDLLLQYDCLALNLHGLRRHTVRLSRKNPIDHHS
- Run Description: SPR (Carterra), antibody immobilized, ST2 analyte
The reply should contain only the number, in M⁻¹ s⁻¹.

As a guide, the following entries are already answered.
binder="Human ST2 IgG1 Antibody 6 (antibody, V domains shown, IgG1; also called ST2 Antibody 6) VH: EVQLLESGGGLVKPGGSLRLSCAASGFTFSSYWMSWVRQAPGKGLEWVSAIGGSGAGTYYADSVKGRFTISLDDSKNTLYLQMNSLKTEDTAVYYCARLSTVTRGFDYWGQGTLVTVSS VL: DIQMTQSPSSLSASVGDRVTITCRASQSISNWLAWYQQKPGKAPKLLIYSASSLQNGVPSRFSGSGSGTDFTLTISSLQPEDFATYYCQQSYSTPPTFGQGTKVEIKR" measured_attribute=kon numeric_value=340000
binder="Human ST2 IgG1 Antibody 91 (antibody, V domains shown, IgG1; also called ST2 Antibody 91) VH: EVQLLESGGGLVKPGGSLRLSCAASGFTFSSYWMSWVRQAPGKGLEWVSVIYSGGSTYYADSVKGRFTISRDDSKNTLYLQMNSLKTEDTAVYYCARGLGWFDPWGQGTLVTVSS VL: DIQMTQSPSSLSASVGDRVTITCQANQHIGNSLNWYQQKPGKAPKLLIFAASRLQSGVPSRFSGSGSGTDFTLTISSLQPEDFATYYCQQSYGTPLTFGGGTKVEIKR" measured_attribute=kon numeric_value=160000

Consider now this further binder.
Task: Please give the documented kon of Human ST2 IgG1 Antibody 93 (antibody, V domains shown, IgG1; also called ST2 Antibody 93) VH: QVQLVQSGAEVKKPGSSVKVSCKASGGTFSTYAISWVRQAPGQGLEWMGGIIPSFNAPSYAQKFQGRVTITADKSTSTAYMELSSLRSEDTAVYYCARVVPAAIVGWYFDLWGRGTLVTVSS VL: DIVMTQSPLSLPVTPGEPASISCRSSQSLLHSNGYNYLDWYLQKPGQSPQLLIYAASTLQTGVPDRFSGSGSGTDFTLKISRVEAEDVGVYYCMQALQTPPTFGQGTKVEIKR
Output: 150000
